- System: HOP-92 NSCLC
- Assay Method Text: NCI-60 one-dose screen, 48 h (100 = growth as untreated, 0 = no growth, -100 = all killed)
- Recorded Conditions: 10 µM unless noted
This is part of a sample that, as a whole, favours compounds with a hit. Of some 83,000 tested, about 20% had one in any assay.
// label = 1.0 if growth is not less than 90%, otherwise 0.0

Would you please look over these solved cases?
compound=Cc1ccc(C2CCCCC2)cc1Br assigned_label=1.0
compound=CS(=O)(=O)c1ccc(/C=C\C(=O)O)cc1 assigned_label=1.0
compound="COC(CCCl)c1ccc(Cl)cc1 (centres undefined)" assigned_label=1.0
compound=COc1ccc(NNS(=O)(=O)O)cc1 assigned_label=0.0
compound=C=CCOc1ccc(Cl)cc1Cl assigned_label=0.0
compound=CCOC(=O)c1ccc(NC(=O)Nc2nccs2)cc1 assigned_label=0.0
compound=Cc1[nH]n(-c2ccccc2)c(=O)c1C=NC(=S)C(N)=S assigned_label=0.0
compound=O=C1C=Cc2ccccc2/C1=C/c1[nH]c(=O)[nH]c1O assigned_label=0.0

In plain terms: is recorded growth at least 90% for N=C(N)c1nn(C2OC(CO)C(O)C2O)c2nc[nH]c(=O)c12 (centres undefined) ?
0.0

Test whether the compound `c1cc(CNCCNCc2ccncc2)ccn1` records growth of 90% or higher.
1.0

---

- Test system: OVCAR-5 ovarian
- Assay Method Text: NCI-60 one-dose screen, 48 h (100 = growth as untreated, 0 = no growth, -100 = all killed)
- Recorded Conditions: 10 µM unless noted
The panel holds about 83,000 compounds, 20% with a hit somewhere; the sample as a whole holds those more often. Activity calls are given as the source filed them. The calls were made as follows: active = growth percent below 10; inactive = the rest.
Experimental Endpoint: growth

Some entries whose results are on file:
molecule=CC(=O)c1cccc(N(C)S(=O)(=O)c2ccc(C)cc2)c1 val="90.7% (inactive)"
molecule=COc1cc(N)c2ncccc2c1Cl val="90.2% (inactive)"
molecule=CC(=O)N(CCCCCCN(C(C)=O)C(C)=O)C(C)=O val="110% [100 µM] (inactive)"
molecule=CCCCn1cnc2c(=O)[nH]cnc21 val="98.7% (inactive)"
molecule=COc1ccc(C(=O)C(=O)c2ccccc2)cc1 val="101% (inactive)"
molecule="COc1ccc(C2CCCCC2=O)cc1 (stereo not drawn)" val="96.9% (inactive)"

Provide growth for all items below, preserving their order.
1. CC1(C)CC(=O)C=C(N)C1
2. CC(=O)/C(C)=N\OC(=O)Nc1ccccc1
3. CCC12OC(COc3ccccc3)CN1CCN2c1ccccc1 (stereo not drawn)
4. CC(=O)Nc1ncc(S(=O)(=O)c2ccc([N+](=O)[O-])cc2)s1
5. CN1CCN(C(=S)S)CC1
6. NC(=O)c1cc2c3ccccc3ccn2c1-c1ccccc1
7. CC1(C)OC2C(CO)OC(n3ccc(=O)[nH]c3=O)C2O1 (stereo not drawn)

1. 89.3% (inactive)
2. 93.1% (inactive)
3. 98% [100 µM] (inactive)
4. 109% (inactive)
5. 106% (inactive)
6. 33.5% (inactive)
7. 104% (inactive)

---

- Tested on: K-562 leukemia
- Assay Method Text: NCI-60 one-dose screen, 48 h (100 = growth as untreated, 0 = no growth, -100 = all killed)
- Recorded Conditions: 10 µM unless noted
About 83,000 compounds went through this panel and 20% of them were active in at least one assay; those are over-represented in the sample as a whole.
Please mark true if the recorded growth is equal to or greater than 90%, and false if it falls below.

As a guide, the following entries are already answered.
compound=O=C(Nc1ccc([N+](=O)[O-])cc1)C(=O)Nc1ccc([N+](=O)[O-])cc1 assigned_label=true
compound=COc1ccc(C(=O)C(=O)c2ccccc2)cc1 assigned_label=true
compound="C=CC(C)C(C)(C)O (configuration not stated)" assigned_label=true
compound="CN(C)c1ccc(O)c2c1CC1CC3C(N(C)C)C(=O)C(C(N)=O)=C(O)C3(O)C(=O)C1=C2O (configuration not stated)" assigned_label=false
compound=c1ccc(-c2ccc3ccccc3c2)cc1 assigned_label=true

Entry `Cc1ccc([N+](=O)[O-])c(C)n1` : is its growth no less than 90%?
true

Does the reported growth for `O=[N+]([O-])c1ccc(-c2nc(N(CCO)CCO)c3ccccc3n2)o1` fall at or above the 90% mark?
false

Please indicate if the recorded growth for `Cc1cc(Nc2ccc3c(c2)OCO3)c2cc3c(cc2n1)OCO3` meets or exceeds 90%.
false

Could you tell me if the measured growth of ClCC(Cl)C1CCC(Cl)C(Cl)C1 (configuration not stated) reaches 90% or more?
true

Does CC(CC(CCC(=O)O)(c1ccccc1)c1ccccc1)N(C)C (configuration not stated) have a reported growth of at least 90%?
true

Is it the case that `NC(=O)OCCO` has growth reaching or exceeding 90%?
false

---

- System: A549/ATCC NSCLC
- Assay Method Text: NCI-60 one-dose screen, 48 h (100 = growth as untreated, 0 = no growth, -100 = all killed)
- Recorded Conditions: 10 µM unless noted
This is part of a sample that, as a whole, favours compounds with a hit. Of some 83,000 tested, about 20% had one in any assay. Calls of active or inactive are those of the source. The calls were made as follows: active = growth percent below 10; inactive = the rest.
Give measured growth for each item. Keep answers brief.

Examples with their reported growth follow.
molecule=Cc1cc2c3ccc(C)[n+](C)c3ccc2n1C experimental_endpoint=growth val="-0.921% (active)"
molecule=CCCCCC(=O)OCCC1CCCCC1 experimental_endpoint=growth val="98.4% (inactive)"
molecule=N#Cc1ccc2nc[nH]c2c1 experimental_endpoint=growth val="101% (inactive)"
molecule=Nc1cc(F)ccc1[N+](=O)[O-] experimental_endpoint=growth val="116% (inactive)"
molecule=Cc1cc(C(=O)NN)c(C#N)c(=O)[nH]1 experimental_endpoint=growth val="101% (inactive)"
molecule="CC(=O)C1C(=O)C(=O)N(c2ccc(Cl)c(Cl)c2)C1=O (stereo not drawn)" experimental_endpoint=growth val="113% (inactive)"

Below is a list of molecules. For each, state its recorded growth.
1. CCOC(=O)/C(O)=C(\C=N\C(=S)Nc1ccc(Cl)c(Cl)c1)C(=O)OCC
2. O=C(NCc1ccco1)Nc1cccc2c(NC(=O)NCc3ccco3)cccc12

101% (inactive)
108% [100 µM] (inactive)

Give growth for each listed item.
1. COC(=O)C1=C(C)C(=O)CC1
2. Cc1[nH]nc(C(N)=O)c1[N+](=O)[O-]
3. N#C/C(=C\NC(=S)N=Nc1c(O)[nH]c2ccccc12)c1nc2ccccc2s1
4. COc1cc(N)c2ncccc2c1Cl

112% (inactive)
101% (inactive)
90.3% (inactive)
103% (inactive)

Dear colleague, I am looking for the recorded growth of the following molecule: `Cc1ccc([N+](=O)[O-])c(C)n1`
105% (inactive)

---

- Test system: U251 CNS
- Assay Method Text: NCI-60 one-dose screen, 48 h (100 = growth as untreated, 0 = no growth, -100 = all killed)
- Recorded Conditions: 10 µM unless noted
The panel holds about 83,000 compounds, 20% with a hit somewhere; the sample as a whole holds those more often.
Experimental Endpoint: growth (%)
Answers are plain numbers, in %.

Below, each entry is followed by its recorded growth result.
compound=Cc1cc(Cc2ccccc2)c(O)c(Cc2ccccc2)c1 val=86.5
compound="CN1CCCN(C(c2ccccc2)c2ccc(Cl)cc2)CC1 (stereo unspecified)" val=97.2
compound=O=S(=O)(O)C(C(I)I)S(=O)(=O)O val=96.3
compound="C#CC(O)c1ccccc1 (stereo unspecified)" val=97.2
compound=CC(=O)O[C@H]1CC[C@]2(C)C3=C(C(=O)C[C@H]2C1(C)C)[C@]1(C)CC[C@H]([C@H](C)CCC(=O)O)[C@@]1(C)CC3=O val=101

Look up growth for this compound: CC(O)C(F)(F)C(F)(F)C(F)(F)F (stereo unspecified)
103

---

- Tested on: OVCAR-4 ovarian
- Assay Method Text: NCI-60 one-dose screen, 48 h (100 = growth as untreated, 0 = no growth, -100 = all killed)
- Recorded Conditions: 10 µM unless noted
- Experimental: Growth inhibition of the OVCAR-4 human tumor cell line is measured as a screen for anti-cancer activity. Cells are grown in 96 well plates and exposed to the test compound for 48 hours. Compounds are tested at a single concentration, which is 10^-5 M for most compounds. The reported endpoint is percent growth (GI% or GIPRCNT), where numbers from 0 - 100% represent growth inhibition, and numbers from -100% - 0 represent cell death. For example, a value of 40 represents 60% growth inhibition. […]
The panel holds about 83,000 compounds, 20% with a hit somewhere; the sample as a whole holds those more often.
Experimental Endpoint: growth (%)
Give bare numbers, in %.

Solved entries:
compound=CCOc1ccc(C(=O)NCC(C)C)cc1 experimental_endpoint=growth val=97.2
compound="NNc1ncnc2c1ncn2C1OC(CO)C(O)C1O (configuration not stated)" experimental_endpoint=growth val=45

// batch mode: one growth value per listed entry
1. NS(=O)(=O)c1cc(=O)[nH]c(=O)[nH]1
2. Nc1nc2nnc(-c3ccccc3)c(-c3ccccc3)n2n1
3. CCOC(=O)C(C#N)=C1CCN(C)CC1

1. 110
2. 101
3. 119

For each of the compounds below, note its growth.
1. O=C(O)c1ccc([N+](=O)[O-])cc1S(=O)(=O)O
2. CCOC(=O)N[C@H]1CCc2cc(OC)c(OC)c(OC)c2-c2ccc(SC)c(=O)cc21
3. COC1OC(CO)C(OC)C(O)C1O (configuration not stated)

[116, 53.4, 98.5]

Give growth for each of the items listed below.
1. O=C(NCc1ccccc1)/C(=C/c1ccccc1)NC(=O)c1ccccc1
2. CCNc1ccc2ccccc2c1N=Nc1ccc(N=Nc2ccccc2)cc1
3. Cc1cccc(-[n+]2noc(N)n2)c1
4. CC(C)c1ccc(C(=O)OCCCl)cc1

1: 115; 2: 98.4; 3: 84; 4: 104
